# experimental-target: human EP4 receptor (Homo sapiens)
# Construct: expressed in transfected cells
# assay-details: Binding ability to human EP receptors ([3H]PGE2 displacement), EP4
# conditions-used: membranes expressing human EP4; [3H]PGE2 1 nM; Cheng-Prusoff; read-out: pKi (M) EP4 (converted)
assay-endpoint: Ki

Example cases with answers are listed next.
O=C(O)COc1cccc(NC(=O)c2cc(-c3cccc(F)c3)ccc2F)c1	> 1e-05 M
O=C(Nc1cccc(Cc2nnn[nH]2)c1)c1cccc(-c2ccc(Cl)cc2)n1	> 1e-05 M

Return reported Ki; argument: `O=C(O)Cc1cccc(NC(=O)c2ccc(-c3ccccc3)cc2Cl)c1`
> 1e-05 M

Here is the next compound: `O=C(O)Cc1cccc(C(=O)Nc2cccc(-c3ccccc3)c2)c1`
> 1e-05 M

Here is the next compound: `O=C(O)COc1cccc(NC(=O)c2cc(-c3cccc(Cl)c3)ccc2F)c1`
> 1e-05 M

Here is the next compound: `O=C(O)Cc1cccc(NC(=O)c2cccc(-c3ccc(Cl)cc3)n2)c1`
> 1e-05 M

Here is the next compound: `O=C(O)/C=C/c1cccc(NC(=O)c2csc(-c3ccccc3)n2)c1`
> 1e-05 M

---

# experimental-target: human EP2 receptor (Homo sapiens, UniProt P43116)
# Construct: expressed in transfected cells
# assay-details: Binding ability to human EP receptors ([3H]PGE2 displacement), EP2
pKi: −log10 of the molar value.
assay-endpoint: pKi

Return reported pKi; argument: `O=C(O)/C=C/c1cccc(NC(=O)c2cccc(-c3cccc(Cl)c3)n2)c1`
> 7.00

---

# experimental-target: human EP3 receptor (Homo sapiens, UniProt P43115)
# Construct: expressed in transfected cells
# Sequence (P43115 whole entry): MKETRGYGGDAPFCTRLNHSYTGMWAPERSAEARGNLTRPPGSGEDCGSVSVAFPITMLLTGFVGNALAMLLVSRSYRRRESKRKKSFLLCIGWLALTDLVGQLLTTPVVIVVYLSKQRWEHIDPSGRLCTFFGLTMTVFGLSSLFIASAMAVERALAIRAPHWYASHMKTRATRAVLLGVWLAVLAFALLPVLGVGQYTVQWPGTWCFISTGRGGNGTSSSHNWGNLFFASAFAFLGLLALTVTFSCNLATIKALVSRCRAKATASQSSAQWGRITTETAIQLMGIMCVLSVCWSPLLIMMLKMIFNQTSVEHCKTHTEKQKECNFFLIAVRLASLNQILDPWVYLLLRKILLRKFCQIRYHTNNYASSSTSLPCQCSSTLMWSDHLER
# assay-details: Binding ability to human EP receptors ([3H]PGE2 displacement), EP3
# conditions-used: membranes expressing human EP3; [3H]PGE2 2.5 nM; Cheng-Prusoff; read-out: pKi (M) EP3 (converted)
assay-endpoint: Ki

Example cases with answers are listed next.
Cc1cc(-c2ccccc2)ccc1C(=O)Nc1cccc(CC(=O)O)c1	> 1e-05 M
O=C(O)CCc1cccc(NC(=O)c2ccc(-c3ccc(F)cc3)o2)c1	> 1e-05 M
O=C(O)Cc1cccc(NC(=O)c2ccc(-c3ccco3)o2)c1	> 1e-05 M
O=C(Nc1ccc2[nH]c(C(=O)O)cc2c1)c1cccc(-c2cc(Cl)cc(Cl)c2)n1	> 1e-05 M
O=C(O)Cc1cccc(NC(=O)c2ccc(-c3cc(F)cc(F)c3)o2)c1	> 1e-05 M

I'm curious: which Ki was measured for `O=C(O)Cc1cccc(NC(=O)c2cccc(-c3ccc(Cl)cc3)n2)c1` tested on human EP3 receptor (Homo sapiens, UniProt P43115)?
> 1e-05 M

Here is the next compound: `O=C(O)c1cc2cc(NC(=O)c3ccc(-c4ccccc4)o3)ccc2o1`
> 1e-05 M

Here is the next compound: `O=C(O)/C=C/c1cccc(NC(=O)c2ccc(-c3cccc(F)c3)o2)c1`
> 1e-05 M

Here is the next compound: `Cc1cc(C(=O)Nc2cccc(CC(=O)O)c2)sc1-c1ccccc1`
> 1e-05 M

---

# experimental-target: human EP4 prostanoid receptors (Homo sapiens)
# Construct: expressed in transfected cells; host or cells: HEK-293
# Sequence (P35408 whole entry): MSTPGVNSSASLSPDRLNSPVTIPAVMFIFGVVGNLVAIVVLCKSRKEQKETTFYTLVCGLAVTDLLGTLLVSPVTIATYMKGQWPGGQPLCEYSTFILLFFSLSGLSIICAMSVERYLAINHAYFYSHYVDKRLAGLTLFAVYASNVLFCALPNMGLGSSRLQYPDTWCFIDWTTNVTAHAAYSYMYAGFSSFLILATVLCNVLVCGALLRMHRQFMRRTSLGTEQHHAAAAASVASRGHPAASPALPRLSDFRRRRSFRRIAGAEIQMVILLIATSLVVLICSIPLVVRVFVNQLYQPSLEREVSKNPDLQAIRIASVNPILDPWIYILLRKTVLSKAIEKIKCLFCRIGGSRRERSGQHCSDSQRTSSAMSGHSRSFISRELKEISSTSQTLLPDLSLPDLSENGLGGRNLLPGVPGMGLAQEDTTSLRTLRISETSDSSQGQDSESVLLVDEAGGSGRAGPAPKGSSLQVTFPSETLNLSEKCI
# assay-details: Antagonist activity at EP4 prostanoid receptors (PGE2-stimulated cAMP in HEK-293 clones)
# Assay type: cell-based
# conditions-used: HEK-293 stably transfected with human EP4; 30 min pre-incubation before PGE2; Gaddum-Schild, slope of unity; read-out: pA2 EP4 (converted)
assay-endpoint: Kb

O=C(O)/C=C/c1cccc(NC(=O)c2cccc(-c3ccccc3)n2)c1	< 1000 nM
O=C(O)CCc1cccc(NC(=O)c2ccc(-c3cccc(Cl)c3)o2)c1	< 10000 nM
O=C(O)Cc1cccc(NC(=O)c2ccc(-c3cc(Cl)cc(Cl)c3)o2)c1	< 1000 nM
O=C(O)COc1cccc(NC(=O)c2ccc(-c3cccc(Cl)c3)o2)c1	< 1000 nM
O=C(O)COc1cccc(NC(=O)c2ccc(-c3cc(Cl)cc(Cl)c3)o2)c1	< 1000 nM

Return reported Kb; argument: `O=C(O)Cc1ccc(NC(=O)c2ccc(-c3ccccc3)o2)cc1`
< 10000 nM

Here is the next molecule: `O=C(O)Cc1cccc(NC(=O)c2cccc(-c3cccc(Cl)c3)n2)c1`
< 1000 nM

---

# experimental-target: human EP2 prostanoid receptors (Homo sapiens, UniProt P43116)
# Construct: expressed in transfected cells; host or cells: HEK-293
# Sequence (P43116 whole entry): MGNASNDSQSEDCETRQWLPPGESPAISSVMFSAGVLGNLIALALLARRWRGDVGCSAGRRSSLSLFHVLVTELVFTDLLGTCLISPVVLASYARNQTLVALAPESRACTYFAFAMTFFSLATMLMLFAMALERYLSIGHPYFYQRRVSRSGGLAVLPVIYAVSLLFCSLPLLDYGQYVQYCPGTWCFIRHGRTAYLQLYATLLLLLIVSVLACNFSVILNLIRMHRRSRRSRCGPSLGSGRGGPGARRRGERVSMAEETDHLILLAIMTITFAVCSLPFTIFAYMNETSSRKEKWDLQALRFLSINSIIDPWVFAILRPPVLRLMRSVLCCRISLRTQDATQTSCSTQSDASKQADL
# assay-details: Agonist activity at recombinant human EP2 prostanoid receptors (cAMP in HEK-293 clones)
# Assay type: cell-based
# conditions-used: functional classification at EP2
assay-endpoint: activity (EP2 part)

O=C(O)Cc1cccc(NC(=O)c2ccc(-c3ccccc3Cl)o2)c1	EP2 Agonist
CC(C)c1cccc(-c2ccc(C(=O)Nc3cccc(CC(=O)O)c3)o2)c1	EP2 agonist
O=C(O)Cc1cccc(NC(=O)c2cccc(-c3ccccc3)c2)c1	EP2 agonist
O=C(O)Cc1cccc(NC(=O)c2cccc(-c3cccc(Cl)c3)n2)c1	EP2 Agonist/
O=C(O)/C=C/c1cccc(NC(=O)c2csc(-c3ccccc3)n2)c1	EP2 Agonist
O=C(O)Cc1cccc(NC(=O)c2ccc(-c3ccccc3)o2)c1	EP2 agonist
O=C(O)CCc1cccc(NC(=O)c2ccc(-c3cccc(Cl)c3)o2)c1	EP2 Agonist/
O=C(O)Cc1cccc(NC(=O)c2cccc(-c3ccc(Cl)cc3)n2)c1	EP2 Agonist

Now for the compound whose activity (EP2 part) we want.
Return reported activity (EP2 part); argument: `O=C(O)/C=C/c1cccc(NC(=O)c2csc(-c3cccc(F)c3)n2)c1`
EP2 Agonist

---

# experimental-target: human EP2 receptor (Homo sapiens)
# Construct: expressed in transfected cells
# assay-details: Binding ability to human EP receptors ([3H]PGE2 displacement), EP2
# conditions-used: membranes expressing human EP2; [3H]PGE2 3 nM; Cheng-Prusoff; read-out: pKi (M) EP2 (converted)
# Method: Membranes were prepared from cells stably transfected with human EP receptor cDNA. In brief, cells were cultured to confluency, scraped from culture flasks, and centrifuged (800 g, 8 minutes, 4° C.). […] Non-specific binding was determined in the presence of 10 uM PGE2. Bound and free radiolabel was separated by vacuum manifold filtration using appropriate wash buffers, and bound radiolabel was determined by scintillation counting. […]
assay-endpoint: Ki

Example cases with answers are listed next.
O=C(O)COc1cccc(NC(=O)c2cccc(-c3ccc(F)cc3)n2)c1	< 1e-07 M
O=C(O)c1cc2cc(NC(=O)c3ccc(-c4ccccc4)o3)ccc2[nH]1	< 1e-05 M
O=C(O)Cc1cccc(NC(=O)c2cc(-c3cccc(F)c3)ccc2F)c1	< 1e-07 M
O=C(Nc1cccc(/C=C/c2nnn[nH]2)c1)c1cccc(-c2ccccc2)n1	< 1e-07 M
O=C(O)/C=C/c1cccc(NC(=O)c2ccc(-c3cccc(Cl)c3)o2)c1	< 1e-07 M
O=C(O)/C=C/c1cccc(OCc2csc(-c3ccccc3)n2)c1	< 1e-06 M

Return reported Ki; argument: `COc1ccc(-c2ccc(C(=O)Nc3cccc(CC(=O)O)c3)o2)cc1`
< 1e-06 M

Here is the next compound: `O=C(O)/C=C/c1cccc(NC(=O)c2ccc(-c3cc(C(F)(F)F)cc(C(F)(F)F)c3)o2)c1`
< 1e-07 M

Here is the next compound: `O=C(O)c1cc2cc(NC(=O)c3ccc(-c4ccccc4)o3)ccc2o1`
< 1e-06 M

Here is the next compound: `O=C(Nc1cccc(Cc2nnn[nH]2)c1)c1ccc(-c2ccccc2)o1`
< 1e-07 M

Here is the next compound: `O=C(O)Cc1cccc(NC(=O)c2ccc(-c3ccccc3)cc2Cl)c1`
< 1e-05 M

Here is the next compound: `O=C(O)Cc1cccc(NC(=O)c2cnc(-c3ccccc3)[nH]2)c1`
< 1e-05 M

---

# experimental-target: human EP2 receptor (Homo sapiens, UniProt P43116)
# Construct: expressed in transfected cells
# assay-details: Binding ability to human EP receptors ([3H]PGE2 displacement), EP2
# conditions-used: membranes expressing human EP2; [3H]PGE2 3 nM; Cheng-Prusoff; read-out: pKi (M) EP2 (converted)
assay-endpoint: Ki

Example cases with answers are listed next.
O=C(O)c1ccc(CNC(=O)c2ccc(-c3ccccc3)o2)cc1	< 1e-05 M
O=C(Nc1cccc(Cc2nnn[nH]2)c1)c1cccc(-c2ccccc2)n1	< 1e-06 M
O=C(Nc1cccc(/C=C/c2nnn[nH]2)c1)c1cc(-c2ccccc2)ccc1F	< 1e-07 M
O=C(Nc1cccc(/C=C/c2nnn[nH]2)c1)c1ccc(-c2ccccc2)o1	< 1e-07 M
O=C(O)Cc1cccc(NC(=O)c2ccc(-c3ccc(Cl)cc3)o2)c1	< 1e-06 M

Return reported Ki; argument: `O=C(O)COc1cccc(NC(=O)c2ccc(-c3ccccc3)o2)c1`
< 1e-07 M

Here is the next compound: `O=C(O)COc1cccc(NC(=O)c2cc(-c3ccc(F)cc3)ccc2F)c1`
< 1e-07 M

Here is the next compound: `O=C(O)/C=C/c1cccc(CC(=O)c2ccc(-c3ccccc3)o2)c1`
< 1e-05 M

Here is the next compound: `COc1ccccc1-c1ccc(C(=O)Nc2cccc(CC(=O)O)c2)o1`
< 1e-06 M
